Form field: percent response of DMSO control (one value per entry).
- Method Description: TOR pathway RTG branch CIT2 reporter changes – S. cerevisiae, GFP fusion, multiplex flow cytometry, primary screen (AID 1870);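 also: barcoded CIT2-GFP strain pooled with four other GFP strains with rapamycin as positive control; median GFP fluorescence per well over plate mean of DMSO wells so 100% = DMSO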
- Experimental Conditions: S. cerevisiae CIT2-GFP expression, 3 h, at 10 µM, stronger effect = higher value
Property Name: percent response of DMSO control (%)

{"columns": ["Query Smiles", "Output Unit", "Data Value"],
 "data": [
  ["CC(=O)c1cccc(NC(=O)N[C@@H](CC(C)C)C(=O)O)c1", "%", 104],
  ["CC(=O)Nc1c(I)c(NC(C)=O)c(I)c(C(=O)O)c1I", "%", 104],
  ["COc1ccc(-c2cc(C(=O)N3CCOCC3)c3cc(C)ccc3n2)cc1", "%", 101],
  ["c1ccc2[nH]c(-c3cscn3)nc2c1", "%", 97.7],
  ["CCOc1ccc2nc(NC(=O)NC3CCCCC3)sc2c1", "%", 98.6]
]}

----------
Item-by-item account of double positive events
- Method Description: reduced mouse 2C T cell binding to pMHC/ICAM-1 vesicles – MLPCN validation set, flow cytometry, LFA-1/ICAM-1 modulator project, pilot screen (AID 2523)
- Experimental Conditions: 2C mouse CD8+ T cells, at 7 µM, stronger effect = lower value; measured here: CD8+/vesicle+ event percentage

{"columns": ["Compound", "double positive events, %"],
 "data": [
  ["O=C(NCCN1CCN(c2ccccc2)CC1)c1cccc(Br)c1", 41.8],
  ["O=C(Nc1nc2ccccc2s1)c1ccc(F)cc1", 59.5],
  ["COC(=O)C1=CN(Cc2cccs2)C=C(C(=O)OC)C1c1cccc(Cl)c1", 61.5],
  ["COc1ccc(OC(C)C(=O)Nc2ccc([N+](=O)[O-])cc2)cc1 (configuration not stated)", 65.7],
  ["Cn1cc(CN2CCN(CCO)CC2)c(-c2ccc(Oc3ccccc3)cc2)n1", 61],
  ["CC(C)Oc1cccc(C(=O)N2CCCC2)c1", 64.7],
  ["O=S(=O)(CCc1nc2ccccc2[nH]1)c1ccc(Cl)cc1", 60.3],
  ["CCCn1c(=O)c2[nH]c(C3CCCC3)nc2n(CCC)c1=O", 62.8],
  ["COc1ccc(-c2[nH]ncc2CN(C)C(C)c2ccon2)c(OC)c1 (configuration not stated)", 61.9],
  ["Cc1ccc(C2CC(c3cccs3)=NN2C(=O)c2ccco2)o1 (configuration not stated)", 62.2],
  ["COc1ccccc1/C=C/C(=O)c1c2c(c(C)[nH]c1=O)CCCC2", 65.9],
  ["COc1ccc(CCN2C(=O)CSC2c2ccc(OC)c(OC)c2)cc1OC (configuration not stated)", 63.2]
]}

----------
- Assay Target: GTPase HRas (Homo sapiens) (UniProt P01112)
- Sequence (P01112 whole entry, looked up): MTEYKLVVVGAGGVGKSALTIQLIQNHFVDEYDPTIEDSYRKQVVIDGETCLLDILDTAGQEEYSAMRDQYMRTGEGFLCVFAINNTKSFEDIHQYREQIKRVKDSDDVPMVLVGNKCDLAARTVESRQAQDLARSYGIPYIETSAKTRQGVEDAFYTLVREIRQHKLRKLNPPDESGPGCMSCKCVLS
- Method Description: Ras wt fluorescent GTP loading blockade – biochemical, wildtype, multiplex bead flow cytometry, dose response (AID 1335)
- Experimental Conditions: bead-based flow cytometry, Bodipy-GTP binding to GST-Ras; at 100 µM (top of the series) unless noted

{"columns": ["Molecule", "GTP binding, percent of control, %"],
 "data": [
  ["COc1ccc(CNCc2sc(C(=O)O)cc2C)cc1OC", 78.1],
  ["O=C(O)CCN1C(=O)/C(=C\\c2ccc(-c3nc4ccccc4s3)o2)SC1=S", 63.4],
  ["CCCN1C(=O)/C(=C\\C=C2\\N(CC)c3ccccc3C2(C)C)SC1=S", 140],
  ["Nc1c(S(=O)(=O)c2ccccc2)c2nc3ccccc3nc2n1C1CC1", 80],
  ["S=c1[nH]nc(-c2ccco2)n1-c1ccccc1Cl", 60.5],
  ["Cc1cc2ccccn2c1C(=O)c1cccc([N+](=O)[O-])c1", 81.2],
  ["CCCOc1ccc(OCCSc2nc3ccccc3n2CC(=O)O)cc1", 87.7],
  ["COc1ccc(/C=C(/C#N)C(=O)Nc2ccc(O)cc2)cc1C(=O)O", 74.4],
  ["N#CC(C#N)=C1C=CC=CN1/C(=C\\c1ccccc1Cl)C(=O)c1ccccc1", 76.3],
  ["COCCNc1nnnc2c1sc1nc(N3CCOCC3)c3c(c12)CCCC3", 64.1],
  ["COc1cccc(C(=O)O)c1OCc1c(C)cccc1C", 204],
  ["CCOC(=O)N1CCN(/C=C(\\C#N)c2nc3ccccc3s2)CC1", 92.3],
  ["NS(=O)(=O)c1ccc(CCN2C(=O)/C(=C\\c3ccc(Cl)cc3)SC2=S)cc1", 76.5],
  ["C=CCn1c(-c2csc(-c3ccc(Cl)cc3)n2)n[nH]c1=S", 89.3],
  ["Cc1cc(C(=O)CN2C(=O)C(=O)N(Cc3ccccc3)C2=O)c(C)n1-c1ccccc1F", 81.4],
  ["CCCS(=O)(=O)c1nnnn1-c1cccc(OC)c1", 71.2],
  ["Cc1ccc(SC(CC(=O)c2ccc(C(C)(C)C)cc2)C(=O)O)cc1 (configuration not stated)", 72.6]
]}

----------
The following compounds are shown together with reported aptamer binding inhibition values.
- Assay Target: Beta-adrenergic receptor kinase 1 (Homo sapiens) (UniProt P25098)
- Sequence (P25098 whole entry, looked up): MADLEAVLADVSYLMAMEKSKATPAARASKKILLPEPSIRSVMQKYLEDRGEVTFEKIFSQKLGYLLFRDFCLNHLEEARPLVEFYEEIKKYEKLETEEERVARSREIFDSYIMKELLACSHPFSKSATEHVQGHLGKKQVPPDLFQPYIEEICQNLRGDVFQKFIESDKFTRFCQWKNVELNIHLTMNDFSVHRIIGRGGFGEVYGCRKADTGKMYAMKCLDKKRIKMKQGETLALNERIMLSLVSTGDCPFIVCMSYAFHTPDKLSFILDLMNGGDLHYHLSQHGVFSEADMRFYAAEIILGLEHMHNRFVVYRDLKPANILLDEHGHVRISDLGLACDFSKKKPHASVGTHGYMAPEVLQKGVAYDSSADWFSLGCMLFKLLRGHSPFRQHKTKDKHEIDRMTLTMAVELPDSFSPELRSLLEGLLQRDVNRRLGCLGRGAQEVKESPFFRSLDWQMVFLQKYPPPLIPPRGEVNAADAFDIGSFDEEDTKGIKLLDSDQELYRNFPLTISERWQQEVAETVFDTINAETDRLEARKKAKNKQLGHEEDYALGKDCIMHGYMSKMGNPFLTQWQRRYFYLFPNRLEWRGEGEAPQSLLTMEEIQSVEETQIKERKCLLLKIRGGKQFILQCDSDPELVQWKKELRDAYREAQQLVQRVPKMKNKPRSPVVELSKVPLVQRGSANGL
- Method Description: GRK2 binders displacing RNA aptamer, biochemical, validation, human GRK2, bead flow cytometry (AID 488806)
- Experimental Conditions: bead-bound GRK2, FAM-aptamer displacement, at 10 µM, stronger effect = higher value

{"columns": ["Compound", "aptamer binding inhibition [%]"],
 "data": [
  ["c1cnc2c(c1)ccc1cccnc12", 8],
  ["CCOC(=O)C1C(=O)OC2(CCOC(C)(C)C2)C1C(=O)OCC (configuration not stated)", 5],
  ["Cc1c(NC(=O)c2cccs2)cccc1[N+](=O)[O-]", -4],
  ["Cc1cccc(Oc2coc3cc(OC(=O)c4cncc(Br)c4)ccc3c2=O)c1", 1],
  ["Cc1nc(C2CC(=O)OC23CCCCC3)cs1 (configuration not stated)", 9],
  ["c1ccc(Cn2ncc3c(Nc4ccccc4)ncnc32)cc1", -1],
  ["O=C(O)[C@H](Cc1ccccc1)NC(=O)N1CCC(Cc2ccccc2)CC1", -6],
  ["CC(=O)N1c2ccccc2C(C)=CC1(C)C", 2],
  ["Cc1ccc2c(c1)c(C)cc(=O)n2CCC(=O)O", 17],
  ["Nc1ccc(S(N)(=O)=O)cc1N", 3],
  ["Cc1ccc2c(c1)c1c3n2CCCN(Cc2ccccc2)C3CCC1 (configuration not stated)", 0],
  ["COc1ccc2[nH]c(=O)c3c(c2c1)OC(C)(C)C=C3", 4]
]}

----------
This listing pairs molecules with measured vesicle binding response.
- Method Description: reduced mouse 2C T cell binding to pMHC/ICAM-1 vesicles – MLPCN validation set, flow cytometry, LFA-1/ICAM-1 modulator project, pilot screen (AID 2523);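 as to vesicle binding response: mean PE anti-B7-1 fluorescence of CD8+ cells relative to row control; 100% = QL9-loaded vesicles with DMSO vehicle in the same plate row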
- Experimental Conditions: 2C mouse CD8+ T cells, at 7 µM, stronger effect = lower value
Property Name: vesicle binding response (%)

{"columns": ["Molecule", "Data Value"],
 "data": [
  ["CCOC(=O)N1c2ccccc2C=CC1OCC (configuration not stated)", 109],
  ["Cc1ccc2c(c1)C1OCCC1C1N2C(=O)C2C(C(=O)O)C3C=CC21O3 (configuration not stated)", 207],
  ["COc1ccc(-c2noc(-c3ccccc3-c3ccccc3)n2)cc1", 138],
  ["CCN(CCCCCN(C)C)Cc1cc2ccccc2o1", 206],
  ["Cc1ccc(S(=O)(=O)NC(C(=O)Oc2ccc3c(C(F)(F)F)cc(=O)oc3c2)c2ccccc2)cc1 (configuration not stated)", 183],
  ["COc1cc(CNCCc2ccccc2F)ccc1OCC(=O)N1CCCCC1", 196],
  ["CC(=O)OC(CC(=O)O)C[N+](C)(C)C (configuration not stated)", 243],
  ["CCC(C)n1ncn(-c2ccc(N3CCN(c4ccc(OCC5COC(Cn6cncn6)(c6ccc(Cl)cc6Cl)O5)cc4)CC3)cc2)c1=O (configuration not stated)", 22.8],
  ["COc1ccc(/C=C/C(=O)Nc2ccccc2C(=O)O)cc1OC", 50.8],
  ["O=C(NC1CCCCC1)c1cc2nc(-c3ccco3)cc(C(F)(F)F)n2n1", 158],
  ["CCC(=O)Oc1ccc(C(=O)Nc2ccc([N+](=O)[O-])cc2)cc1", 195],
  ["COc1ccc(OCc2cccc(C(=O)NN)c2)cc1", 167]
]}

----------
- Method Description: Nile Red efflux blockade in pump-expressing yeast – validation compound set, multiplex, phenotypic, pilot screen (AID 588506);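 also: Nile Red retained in cells so higher fluorescence means more efflux inhibition; 0 = negative control wells and 1 = enniatin B 25 µM full block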
- Experimental Conditions: S. cerevisiae pump-expressing triplex, Nile Red efflux flow cytometry; at 10 µM; stronger effect = higher value; the pumps come from Candida albicans
Documented efflux inhibition (fraction of control) across a set of compounds

{"columns": ["Compound", "efflux inhibition (fraction of control)"],
 "data": [
  ["CC(C)C12CN3CC(C(C)C)(CN(C1)C31C(=O)Nc3ccccc31)C2=O (stereo unspecified)", 0],
  ["COc1cc(OC)cc(C(C)=O)c1", 0],
  ["O=C1CC(c2ccc(O)cc2)Oc2cc(O)cc(O)c21 (stereo unspecified)", -0.26],
  ["CC(=O)N1c2ccccc2C(C)=CC1(C)C", -0.04],
  ["CC(=O)NC(Cc1c[nH]c2ccccc12)C(=O)N/N=C/c1ccccc1 (stereo unspecified)", 0],
  ["COc1ccc(NS(=O)(=O)c2ccc(N)cc2)nn1", -0.17]
]}
